subject_of_test: T1, Macaca fascicularis IL2Rγ extracellular domain expressed with a C-terminal myc-myc-hexahistidine tag (Macaca fascicularis)
T1 construct: also called mfIL-2Rg-MMH; mfIL-2RG-MMH
T1 chain: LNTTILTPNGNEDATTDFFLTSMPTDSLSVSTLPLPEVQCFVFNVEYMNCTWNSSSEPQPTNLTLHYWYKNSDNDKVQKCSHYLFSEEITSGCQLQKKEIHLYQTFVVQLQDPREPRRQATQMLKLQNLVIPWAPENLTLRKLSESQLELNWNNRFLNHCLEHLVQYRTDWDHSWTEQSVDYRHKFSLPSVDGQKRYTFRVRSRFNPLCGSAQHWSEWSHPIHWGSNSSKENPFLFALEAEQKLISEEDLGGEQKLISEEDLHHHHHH
protocol_text: SPR, captured mAb, 25C, dissociation pH 7.4
attribute_measured: t1/2 (h)
Kindly provide the numeric value in h only, without the unit symbol.

Below are worked cases with known answers.
{"columns": ["binder", "unit_abbrev", "t1/2"],
 "data": [
  ["H4H12890P (antibody, human IgG4 S228P, kappa, V domains shown, anti-IL2Rgamma mAb expressed with human IgG4 Fc) VH: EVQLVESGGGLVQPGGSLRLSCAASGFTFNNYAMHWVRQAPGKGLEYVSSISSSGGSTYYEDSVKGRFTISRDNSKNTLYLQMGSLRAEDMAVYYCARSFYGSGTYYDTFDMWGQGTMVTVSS VL: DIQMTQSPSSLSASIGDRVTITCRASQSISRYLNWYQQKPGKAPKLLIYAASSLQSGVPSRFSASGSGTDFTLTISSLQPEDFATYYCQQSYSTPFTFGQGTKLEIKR", "h", 0.95],
  ["H4H12889P (antibody, human IgG4 S228P, kappa, V domains shown, anti-IL2Rgamma mAb expressed with human IgG4 Fc; also called REGN7257) VH: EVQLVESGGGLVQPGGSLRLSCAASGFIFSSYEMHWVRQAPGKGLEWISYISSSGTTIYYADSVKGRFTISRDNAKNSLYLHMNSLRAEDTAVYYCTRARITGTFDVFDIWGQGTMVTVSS VL: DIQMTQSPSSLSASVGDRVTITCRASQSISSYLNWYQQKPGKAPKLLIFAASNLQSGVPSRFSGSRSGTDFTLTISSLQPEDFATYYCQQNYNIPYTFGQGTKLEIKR", "h", 1.23]
]}

// switching to the query binder
Problem: Looking for the measured t1/2 of H4H12858P (antibody, human IgG4 S228P, kappa, V domains shown, anti-IL2Rgamma mAb expressed with human IgG4 Fc; also called REGN9433) VH: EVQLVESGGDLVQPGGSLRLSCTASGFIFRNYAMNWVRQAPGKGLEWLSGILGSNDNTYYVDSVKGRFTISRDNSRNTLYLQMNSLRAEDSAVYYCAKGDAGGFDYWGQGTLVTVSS VL: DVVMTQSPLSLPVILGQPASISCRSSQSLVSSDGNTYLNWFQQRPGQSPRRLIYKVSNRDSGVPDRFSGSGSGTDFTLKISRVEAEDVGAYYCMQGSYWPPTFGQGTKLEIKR , can you help?
Solution: 1.13
